Reported Plasma stab (human plasma stability) is given for each of the following molecules.
Test: Human plasma stability
Assay type: in vitro ADME
Conditions: after 18 h incubation
Give your result in % compound remaining as a bare value.

INSERT INTO assay_data (molecule, value_kind, unit_annotation, assay_result) VALUES
  ('CN1C(=O)C2(Nc3ccccc3C(=O)N2Cc2ccco2)c2cc(Br)ccc21 (stereo not shown)', 'Plasma stab (human plasma stability)', '% compound remaining', 98),
  ('CN1C(=O)C2(Nc3ccccc3C(=O)N2Cc2cccnc2)c2cc(Br)ccc21 (stereo not shown)', 'Plasma stab (human plasma stability)', '% compound remaining', 97),
  ('Cc1ccc(N2C(=O)c3ccccc3NC23C(=O)N(C)c2ccc([N+](=O)[O-])cc23)cc1 (stereo not shown)', 'Plasma stab (human plasma stability)', '% compound remaining', 100),
  ('CCc1ccccc1-c1ccc2c(c1)C1(Nc3ccccc3C(=O)N1c1ccc(C)cc1)C(=O)N2C (stereo not shown)', 'Plasma stab (human plasma stability)', '% compound remaining', 102);

Per the records, this molecule ( CN(C)CCN1C(=O)c2ccccc2NC12C(=O)N(C)c1ccc(Br)cc12 (stereo not shown) ) has Plasma stab (human plasma stability) equal to 95

// recorded Plasma stab (human plasma stability) for COCCN1C(=O)c2ccccc2NC12C(=O)N(C)c1ccc(Br)cc12 (stereo not shown) : 99

Looking up CCCCN1C(=O)c2ccccc2NC12C(=O)N(C)c1ccc(Br)cc12 (stereo not shown) , I found its Plasma stab (human plasma stability) recorded as 105

---

Experiment: Metabolic stability in rat hepatocytes
Type: in vitro ADME
Settings: Rat hep. Clint (rat hepatocytes intrinsic clearance), rat hepatocytes
Note to self: use condition met only for hepatocyte CLint readings below 100 µL/min/1e6 cells; a reading exactly at 100 µL/min/1e6 cells still gets condition not met.

Please review the following examples before continuing.
INSERT INTO measurements (compound, class_label) VALUES
  ('COCCN1C(=O)c2ccccc2NC12C(=O)N(C)c1ccc(Br)cc12 (stereo not shown) [Compound 39]', 'condition met'),
  ('CCc1ccccc1-c1ccc2c(c1)C1(Nc3ccccc3C(=O)N1c1ccc(C)cc1)C(=O)N2C (stereo not shown) [Compound 15]', 'condition not met'),
  ('CCCCN1C(=O)c2ccccc2NC12C(=O)N(C)c1ccc(Br)cc12 (stereo not shown) [Compound 38]', 'condition not met'),
  ('CN1C(=O)C2(Nc3ccccc3C(=O)N2Cc2cccnc2)c2cc(Br)ccc21 (stereo not shown) [Compound 36]', 'condition met'),
  ('CN(C)CCN1C(=O)c2ccccc2NC12C(=O)N(C)c1ccc(Br)cc12 (stereo not shown) [Compound 40]', 'condition not met');

## Task Please state whether hepatocyte CLint is below 100 µL/min/1e6 cells for CN1C(=O)C2(Nc3ccccc3C(=O)N2Cc2ccco2)c2cc(Br)ccc21 (stereo not shown) [Compound 37]
## Result condition not met

## Task Report whether reported hepatocyte CLint is lower than 100 µL/min/1e6 cells (strictly) for Cc1ccc(N2C(=O)c3ccccc3NC23C(=O)N(C)c2ccc([N+](=O)[O-])cc23)cc1 (stereo not shown) [Compound 7]
## Result condition not met

---

Assay: Human plasma protein binding
Assay type: in vitro ADME
Details: PPB (human protein plasma binding)
Rule: fraction unbound below 0.1 gives True. Equal to or above 0.1 gives False.

INSERT INTO assay_data (compound, class_label) VALUES
  ('COCCN1C(=O)c2ccccc2NC12C(=O)N(C)c1ccc(Br)cc12 (stereo not shown)', 'False');

## Task Please let me know if CN(C)CCN1C(=O)c2ccccc2NC12C(=O)N(C)c1ccc(Br)cc12 (stereo not shown) shows fraction unbound below 0.1.
## Result False

## Task API: query returns whether the compound falls strictly under 0.1 in fraction unbound. Query: CN1C(=O)C2(Nc3ccccc3C(=O)N2Cc2ccco2)c2cc(Br)ccc21 (stereo not shown)
## Result True

## Task # check: fraction unbound < 0.1 for CCCCN1C(=O)c2ccccc2NC12C(=O)N(C)c1ccc(Br)cc12 (stereo not shown)
## Result True

## Task Hello, is fraction unbound of the following compound strictly smaller than 0.1? CN1C(=O)C2(Nc3ccccc3C(=O)N2Cc2cccnc2)c2cc(Br)ccc21 (stereo not shown)
## Result True

Just for reference, paper PMC7050655 is where these values come from.
